- Experiment Notes: Cytotoxicity assay (CC50) in PAM cells
- Stated Conditions: pig, porcine alveolar macrophages (PAM cells)
Property: CC50 (µM)
// note: answer is a bare numeric in µM

>>> df
                                   compound  property  unit_descriptor  measured
0  CN(Cc1cnc2nc(N)nc(N)c2n1)c1ccc(C(=O)N[C@@H](CCC(=O)O)C(=O)O)cc1 [Methotrexate]      CC50               µM      6.83

Consider the record given below.
For reference, reported CC50 for "CS(=O)(=O)CCNCc1ccc(-c2ccc3ncnc(Nc4ccc(OCc5cccc(F)c5)c(Cl)c4)c3c2)o1" stands at 9.51

====

- Experiment Notes: in vitro
- Stated Conditions: pig
Property: CC50 at 48 h

The recorded CC50 at 48 h for CC(=O)Oc1ccccc1C(=O)Nc1ncc([N+](=O)[O-])s1 [Nitazoxanide] is ~44 µM

====

- Experiment Notes: Cytotoxicity assay (CC50) in MARC-145 cells
- Type: cell-based
- Stated Conditions: African green monkey, 48 h of exposure, CCK-8
Property: CC50 at 48 h

CC50 at 48 h measured on CC(=O)Oc1ccccc1C(=O)Nc1ncc([N+](=O)[O-])s1 [Nitazoxanide] = ~44 µM

====

- Tested On: NMRAL1 (Chlorocebus sabaeus, UniProt A0A0D9R9W0)
- Sequence (A0A0D9R9W0 entry or part of it): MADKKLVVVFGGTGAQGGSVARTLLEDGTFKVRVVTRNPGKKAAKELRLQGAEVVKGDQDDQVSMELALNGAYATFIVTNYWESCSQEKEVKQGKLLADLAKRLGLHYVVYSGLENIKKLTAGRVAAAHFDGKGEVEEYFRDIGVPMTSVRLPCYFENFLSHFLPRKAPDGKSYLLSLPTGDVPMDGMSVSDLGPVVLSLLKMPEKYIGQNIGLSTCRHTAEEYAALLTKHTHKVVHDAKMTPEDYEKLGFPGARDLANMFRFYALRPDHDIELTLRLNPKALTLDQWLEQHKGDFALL
- Experiment Notes: Surface plasmon resonance, immobilized NMRAL1
- Assay type: binding
- Stated Conditions: SPR, legend of Fig. 6o, Supplementary Fig. 10a (Affinity fit model)
Property: pKd
Remember the convention: pKd equals -log10 of concentration in molar.

Lab note: measured pKd of O=C(Nc1ncc([N+](=O)[O-])s1)c1ccccc1O [TIZ, Tizoxanide] was 5.35

Source: paper PMC11156899
